- Tested on: OVCAR-5 ovarian
- protocol_details: NCI tumour cell line growth inhibition, 48 h
Where a SMILES comes first, the peptide text is derived from it. [ ]: non-standard residue; d: D form. The star is where a group is joined. ξ: configuration not given here. dThr(3ξ) = CC(O)[C@@H](N)C(=O)O; dNMeL = CN[C@H](CC(C)C)C(=O)O; OBn = c1ccc(CO*)cc1; ξLac = CC(O)C(=O)O
# if value of TGI reaches 20 µM, tag class 1; if it stays below, tag class 0

Textbook exercise: given the entry CCCCCC(O)[C@H]1C(=O)C[C@@H](O[Si](C)(C)C(C)(C)C)[C@@H]1/C=C/CCOCc1ccccc1 (stereo not given in full) , state whether its TGI is greater than or equal to 20 µM.
class 1

Textbook exercise: given the entry O=C(O)CC(Nc1ccccc1)C(=O)O (stereo not given) , state whether its TGI is greater than or equal to 20 µM.
class 1

Textbook exercise: given the entry COc1ccc(/C=C2\CN(Cc3cn(CCCNc4ccnc5cc(Cl)ccc45)nn3)C/C(=C\c3ccc(OC)c(OC)c3)C2=O)cc1OC , state whether its TGI is greater than or equal to 20 µM.
class 0

Textbook exercise: given the entry O=[N+]([O-])c1cc(CCl)ccc1CCl , state whether its TGI is greater than or equal to 20 µM.
class 0

Textbook exercise: given the entry CC(=O)OC(C)[C@@H](NC(=O)[C@@H](CC(C)C)N(C)C(=O)[C@@H]1CCCN1C(=O)C(C)O)C(=O)OCc1ccccc1 (stereo not given in full) (H-[ξLac]P[dNMeL][dThr(3ξ)](Ac)-OBn) , state whether its TGI is greater than or equal to 20 µM.
class 1

Textbook exercise: given the entry CC1(C)OC(C(N)=O)=C(C(N)=O)O1 , state whether its TGI is greater than or equal to 20 µM.
class 1

Textbook exercise: given the entry CC1(C)C(O)C[C@]23CCC[C@](C)(C[C@@H](O)C12)C3 (stereo not given in full) , state whether its TGI is greater than or equal to 20 µM.
class 1

Textbook exercise: given the entry CNNCc1ccc(C(=O)NC(C)C)cc1 , state whether its TGI is greater than or equal to 20 µM.
class 1

Textbook exercise: given the entry O=C(NCc1ccccc1)c1cc2cc(O)c(O)cc2cn1 , state whether its TGI is greater than or equal to 20 µM.
class 1
